Test: Pharmacokinetics assay in rats after intragastrical administration (LC/MS/MS of plasma)
Assay type: in vivo
Conditions: both sexes, rat, plasma, po, SD rats, 2 mg/kg, read-out: Residence time MRT
Threshold 20 h: MRT strictly smaller gives MET, otherwise NOT MET.

Check out these entries, answers already filled in.
| Smiles Representation | Label Class |
| --- | --- |
| C[C@@H]1CN(C(=O)Nc2ccc(F)c(C#N)c2)Cc2c(C(=O)N[C@H](C)C(F)(F)F)ncn21 | MET |
| C[C@H]1Cn2cnc(C(=O)N[C@H](C)C(F)(F)F)c2CN1C(=O)Nc1ccc(F)c(F)c1 | MET |
| C[C@H]1Cn2ncc(C(=O)N[C@H](C)C(F)(F)F)c2CN1C(=O)Nc1ccc(F)c(F)c1 | MET |

Asked: # strict comparison: is reported MRT < 20 h? input = `C[C@@H]1CN(C(=O)Nc2ccc(F)c(F)c2)Cc2c(C(=O)N[C@H](C)C(F)(F)F)nnn21`
Given back: NOT MET

Asked: # strict comparison: is reported MRT < 20 h? input = `C[C@@H](NC(=O)c1cnn2c1CN(C(=O)Nc1ccc(F)c(F)c1)CC2)C(F)(F)F`
Given back: MET

Asked: # strict comparison: is reported MRT < 20 h? input = `C[C@H]1Cn2cnc(C(=O)N[C@H](C)C(F)(F)F)c2CN1C(=O)Nc1ccc(F)c(C#N)c1`
Given back: MET

Asked: # strict comparison: is reported MRT < 20 h? input = `C[C@@H](NC(=O)c1ncn2c1CN(C(=O)Nc1cc(F)c(F)c(F)c1)CC2)C(F)(F)F`
Given back: MET

Asked: # strict comparison: is reported MRT < 20 h? input = `C[C@@H](NC(=O)c1cnn2c1CN(C(=O)Nc1cc(F)c(F)c(F)c1)CC2)C(F)(F)F`
Given back: MET

Asked: # strict comparison: is reported MRT < 20 h? input = `C[C@@H]1CN(C(=O)Nc2ccc(F)c(C#N)c2)Cc2c(C(=O)N[C@H](C)C(F)(F)F)nnn21`
Given back: NOT MET

* * *

Tested on: HBV DNA replication in HepG2.2.15 cells
Assay: In vitro anti-HBV activity test (quantitative assay of intracellular HBV DNA), HepG2.2.15 cells, quantitative PCR
Type: cell-based, hepatitis B virus (HBV)
Conditions: Hepatitis B virus, HBV DNA by quantitative PCR, compound treatment Day 2 to Day 8
Assay Readout: EC50 (µM)
The response must be a number in µM with no trailing unit.

| Smiles Representation | Measured Result |
| --- | --- |
| C[C@@H](NC(=O)c1nnn2c1CN(C(=O)Nc1cc(F)c(F)c(F)c1)CC2)C(F)(F)F | 0.07 |
| C[C@H]1Cn2cnc(C(=O)NC3(C)CCC3)c2CN1C(=O)Nc1ccc(F)c(C#N)c1 | 0.065 |
| C[C@H]1Cn2ncc(C(=O)NC3(C)COC3)c2CN1C(=O)Nc1cc(F)c(F)c(F)c1 | 0.044 |
| C[C@@H]1CN(C(=O)Nc2ccc(F)c(C#N)c2)Cc2c(C(=O)N[C@H](C)C(F)(F)F)nnn21 | 0.06 |
| C[C@@H](NC(=O)c1cnn2c1CN(C(=O)Nc1ccc(F)c(C#N)c1)CC2)C(F)(F)F | 0.028 |
| C[C@H]1Cn2cnc(C(=O)NC(C)(C)C)c2CN1C(=O)Nc1ccc(F)c(F)c1 | 0.032 |
| C[C@H]1Cn2ncc(C(=O)NC(C)(C)C)c2CN1C(=O)Nc1cc(F)c(F)c(F)c1 | 0.029 |
| C[C@H]1Cn2ncc(C(=O)N[C@H](C)C(F)(F)F)c2CN1C(=O)Nc1ccc(F)c(C#N)c1 | 0.029 |

Asked: Fill blank: measured EC50 of the molecule `C[C@@H]1CN(C(=O)Nc2ccc(F)c(C#N)c2)Cc2c(C(=O)N[C@H](C)C(F)(F)F)ncn21` is ____.
Given back: 0.082

Asked: Fill blank: measured EC50 of the molecule `C[C@H]1Cn2ncc(C(=O)N[C@H](C)C(F)(F)F)c2CN1C(=O)Nc1ccc(F)c(F)c1` is ____.
Given back: 0.038

Asked: Fill blank: measured EC50 of the molecule `C[C@H]1Cn2cnc(C(=O)NC3(C)COC3)c2CN1C(=O)Nc1cc(F)c(F)c(F)c1` is ____.
Given back: 0.035

Asked: Fill blank: measured EC50 of the molecule `C[C@@H]1CN(C(=O)Nc2ccc(F)c(F)c2)Cc2c(C(=O)N[C@H](C)C(F)(F)F)nnn21` is ____.
Given back: 0.075

Asked: Fill blank: measured EC50 of the molecule `C[C@H]1Cn2ncc(C(=O)NC(C)(C)C)c2CN1C(=O)Nc1ccc(F)c(F)c1` is ____.
Given back: 0.015

Asked: Fill blank: measured EC50 of the molecule `C[C@H](NC(=O)c1ncn2c1CN(C(=O)Nc1ccc(F)c(F)c1)[C@@H](C)C2)C(F)(F)F` is ____.
Given back: 0.024

* * *

Test system: HepG2 cells
Assay: Effect on in vitro proliferation of HepG2 cells (CellTiter-Glo)
Assay type: cell-based
Assay Readout: CC50

Asked: Fill blank: measured CC50 of the compound C[C@H](NC(=O)c1nnn2c1CN(C(=O)Nc1ccc(F)c(F)c1)[C@@H](C)C2)C(F)(F)F [Example 43] is ____.
Given back: > 100 µM

* * *

Tested on: HepG2 cells
Test: Effect on in vitro proliferation of HepG2 cells (CellTiter-Glo)
Type: cell-based
Details: HepG2 cells, 72 hours, CellTiter-Glo; read-out: CC50
Let's look at some compounds and their measured CC50.

| Compound | CC50 |
| --- | --- |
| C[C@H]1Cn2nnc(C(=O)N[C@H](C)C(F)(F)F)c2CN1C(=O)Nc1ccc(F)c(C#N)c1 [Example 45] | > 100 µM |

Note: attention shifts to another entry.
Asked: Fill blank: measured CC50 of the compound C[C@H]1Cn2nnc(C(=O)N[C@H](C)C(F)(F)F)c2CN1C(=O)Nc1ccc(F)c(F)c1 [Example 39] is ____.
Given back: > 100 µM

* * *

Assay: Pharmacokinetics assay in rats after intragastrical administration (LC/MS/MS of plasma)
Type: in vivo
Conditions: both sexes, rat, plasma, po, SD rats, 2 mg/kg, read-out: Bioavailability (%) F %
Assay Readout: bioavailability (%)
The response must be a number in % with no trailing unit.

Reference set, count: 8
| Smiles Representation | bioavailability (%) |
| --- | --- |
| C[C@@H](NC(=O)c1cnn2c1CN(C(=O)Nc1cc(F)c(F)c(F)c1)CC2)C(F)(F)F | 120 |
| C[C@@H]1CN(C(=O)Nc2ccc(F)c(C#N)c2)Cc2c(C(=O)N[C@H](C)C(F)(F)F)ncn21 | 125 |
| C[C@@H]1CN(C(=O)Nc2ccc(F)c(F)c2)Cc2c(C(=O)N[C@H](C)C(F)(F)F)nnn21 | 87 |
| C[C@H]1Cn2cnc(C(=O)N[C@H](C)C(F)(F)F)c2CN1C(=O)Nc1ccc(F)c(C#N)c1 | 111 |
| C[C@@H](NC(=O)c1ncn2c1CN(C(=O)Nc1cc(F)c(F)c(F)c1)CC2)C(F)(F)F | 119 |
| C[C@@H](NC(=O)c1cnn2c1CN(C(=O)Nc1ccc(F)c(F)c1)CC2)C(F)(F)F | 107 |
| C[C@@H]1CN(C(=O)Nc2ccc(F)c(C#N)c2)Cc2c(C(=O)N[C@H](C)C(F)(F)F)nnn21 | 94 |
| C[C@H]1Cn2cnc(C(=O)N[C@H](C)C(F)(F)F)c2CN1C(=O)Nc1ccc(F)c(F)c1 | 120 |

Note: attention shifts to another entry.
Asked: Fill blank: measured bioavailability of the compound `C[C@H]1Cn2ncc(C(=O)N[C@H](C)C(F)(F)F)c2CN1C(=O)Nc1ccc(F)c(F)c1` is ____.
Given back: 98

* * *

Test: Pharmacokinetics assay in rats after intragastrical administration (LC/MS/MS of plasma)
Type: in vivo
Settings: both sexes, rat, plasma, po, SD rats, 2 mg/kg, read-out: Apparent distribution volume Vz/F
Assay Readout: Vd/F (L/kg)
The response must be a number in L/kg with no trailing unit.

| Molecule | Assay Readout | Measured Result |
| --- | --- | --- |
| C[C@H]1Cn2ncc(C(=O)N[C@H](C)C(F)(F)F)c2CN1C(=O)Nc1ccc(F)c(F)c1 [Example 7] | Vd/F | 1.65 |

Asked: Fill blank: measured Vd/F of the molecule C[C@H]1Cn2cnc(C(=O)N[C@H](C)C(F)(F)F)c2CN1C(=O)Nc1ccc(F)c(C#N)c1 [Example 11] is ____.
Given back: 2.89

Asked: Fill blank: measured Vd/F of the molecule C[C@@H](NC(=O)c1cnn2c1CN(C(=O)Nc1cc(F)c(F)c(F)c1)CC2)C(F)(F)F [Example 4] is ____.
Given back: 3.69

Asked: Fill blank: measured Vd/F of the molecule C[C@@H]1CN(C(=O)Nc2ccc(F)c(C#N)c2)Cc2c(C(=O)N[C@H](C)C(F)(F)F)nnn21 [Example 44] is ____.
Given back: 4.13

Asked: Fill blank: measured Vd/F of the molecule C[C@@H]1CN(C(=O)Nc2ccc(F)c(C#N)c2)Cc2c(C(=O)N[C@H](C)C(F)(F)F)ncn21 [Example 47] is ____.
Given back: 5.69

Asked: Fill blank: measured Vd/F of the molecule C[C@H]1Cn2cnc(C(=O)N[C@H](C)C(F)(F)F)c2CN1C(=O)Nc1ccc(F)c(F)c1 [Example 6] is ____.
Given back: 2.16

Asked: Fill blank: measured Vd/F of the molecule C[C@@H]1CN(C(=O)Nc2ccc(F)c(F)c2)Cc2c(C(=O)N[C@H](C)C(F)(F)F)nnn21 [Example 42] is ____.
Given back: 5.96

Asked: Fill blank: measured Vd/F of the molecule C[C@@H](NC(=O)c1ncn2c1CN(C(=O)Nc1cc(F)c(F)c(F)c1)CC2)C(F)(F)F [Example 1] is ____.
Given back: 2.36

Asked: Fill blank: measured Vd/F of the molecule C[C@@H](NC(=O)c1cnn2c1CN(C(=O)Nc1ccc(F)c(F)c1)CC2)C(F)(F)F [Example 2] is ____.
Given back: 2.58
